Field: growth. Provide a value for each of the compounds that follow.
Test system: A498 renal
Assay: NCI-60 one-dose screen, 48 h (100 = growth as untreated, 0 = no growth, -100 = all killed)
Settings: 10 µM
Compounds without any hit were thinned out: in the full panel of roughly 83,000, 20% have a hit.
Enter your answer as a number in %; do not include the unit.

// query Output measured growth for this item: CSc1nc(Cl)cc(N2CC2)n1
// result 122

// query Output measured growth for this item: COC(=O)C1OC(Oc2ccc(N(CCCl)CCCl)cc2)C(OC(C)=O)C(OC(C)=O)C1OC(C)=O (stereo unspecified)
// result 104

// query Output measured growth for this item: CCCC[C@H](NC(=O)[C@H]1CCCN1C)C(=O)N(C)[C@H](C[C@@H](OC(C)=O)c1nc(C(=O)N[C@@H](Cc2ccccc2)C[C@H](C)C(=O)OCC)cs1)C(C)C
// result -11.7

// query Output measured growth for this item: [Cl][Hg][n]1c(-c2ccco2)nc2ccccc21
// result 114

// query Output measured growth for this item: COc1cccc2c1c(C(=O)C(=O)Nc1cc(C)no1)cn2Cc1ccc(F)cc1
// result 91.1

// query Output measured growth for this item: C#Cc1ccc2c(c1)C(c1ccccc1)=NCC(=O)N2C
// result 26.7

* * *

Test system: SK-MEL-2 melanoma
Assay: NCI-60 one-dose screen, 48 h
Settings: 10 µM unless noted
This is part of a sample that, as a whole, favours compounds with a hit. Of some 83,000 tested, about 20% had one in any assay. Activity calls are given as the source filed them. Rule for the calls: active = growth percent below 10; inactive = the rest.
Your reply should match one of these outcome classes. true = active, false = inactive

// query Hi, sorry to bother you, what did the test record for CC1=C([Te]c2ccc(O)cc2)C(=O)c2ccccc2C1=O ?
// result false

// query Hi, sorry to bother you, what did the test record for CCC1CC(O)c2c(O)c3c(c(O)c2C1O)C(=O)c1cccc(O)c1C3=O (stereo not drawn) (tested in a mixture with another compound) ?
// result true

// query Hi, sorry to bother you, what did the test record for O=C(CC1(O)C(=O)N(Cc2ccccc2)c2ccccc21)c1ccc(C(=O)NCC2CCC3(CC2)OOC2(CCCCC2)OO3)cc1 (stereo not drawn) ?
// result true

* * *

System: TK-10 renal
Test: NCI-60 one-dose screen, 48 h
Details: 10 µM unless noted
About 83,000 compounds went through this panel and 20% of them were active in at least one assay; those are over-represented in the sample as a whole. Calls of active or inactive are those of the source. Rule for the calls: active = growth percent below 10; inactive = the rest.
Your reply should match one of these outcome classes. 1.0 for active, 0.0 for inactive

// query Hi, sorry to bother you, what did the test record for ClC1=C(Cl)C(Cl)(C2(Cl)C(Cl)=C(Cl)C(Cl)=C2Cl)C(Cl)=C1Cl ?
// result 1.0

// query Hi, sorry to bother you, what did the test record for COC(=O)[C@@H](C)C[C@H](Cc1ccccc1)NC(=O)c1csc([C@@H](C[C@H](C(C)C)N(C)C(=O)[C@@H](NC(=O)CN(C)C)C2CC2)OC(C)=O)n1 ?
// result 0.0

// query Hi, sorry to bother you, what did the test record for COc1cc(NCCCN=C(N)N)c2ncccc2c1 ?
// result 0.0

// query Hi, sorry to bother you, what did the test record for O=C(CC1(O)C(=O)Nc2ccc(Br)cc21)c1ccc(C(=O)NCC2CCC3(CC2)OOC2(CCCCC2)OO3)cc1 (stereo not given) ?
// result 0.0

// query Hi, sorry to bother you, what did the test record for CCOC(=O)[C@@H](C)C[C@H](Cc1ccccc1)NC(=O)c1csc([C@@H](C[C@H](C(C)C)N(C)C(=O)[C@@H](NC(=O)[C@H]2C[C@H](O)CCN2C)C(C)C)OC(C)=O)n1 ?
// result 0.0

// query Hi, sorry to bother you, what did the test record for Nc1ncnc2n[nH]nc12 ?
// result 0.0

// query Hi, sorry to bother you, what did the test record for CN[C@]1(c2ccccc2Cl)CCCC[C@H]1NCCCN1CCN(C)CC1 ?
// result 0.0

// query Hi, sorry to bother you, what did the test record for O=C(Nc1ccc([As]=[As]c2ccc(NC(=O)c3ccccc3)cc2)cc1)c1ccccc1 (stereo not given) ?
// result 1.0

// query Hi, sorry to bother you, what did the test record for CCn1cnc2c(Nc3cccc(Cl)c3)nc(N[C@@H]3CCCC[C@@H]3N)nc21 ?
// result 0.0

// query Hi, sorry to bother you, what did the test record for N#Cc1c(Br)n(C2OC(CO)C(O)C2O)c2ncnc(N)c12 (stereo not given) ?
// result 0.0

* * *

Field: growth. Provide a value for each of the molecules that follow.
Test system: NCI-H322M lung
Assay: NCI-60 one-dose screen, 48 h (100 = growth as untreated, 0 = no growth, -100 = all killed)
Conditions: 10 µM unless noted
Description: Growth inhibition of the NCI-H322M human Non-Small Cell Lung tumor cell line is measured as a screen for anti-cancer activity. Cells are grown in 96 well plates and exposed to the test compound for 48 hours. Compounds are tested at a single concentration, which is 10^-5 M for most compounds. The reported endpoint is percent growth (GI% or GIPRCNT), where numbers from 0 - 100% represent growth inhibition, and numbers from -100% - 0 represent cell death. […]
About 83,000 compounds went through this panel and 20% of them were active in at least one assay; those are over-represented in the sample as a whole.
Enter your answer as a number in %; do not include the unit.

// query Output measured growth for this item: N#CC1(c2ccccc2)CCN(Cc2ccccc2)CC1
// result 144

// query Output measured growth for this item: CC(=O)C(c1c(O)c2ccccc2oc1=O)c1cc(=O)oc2c1ccc1ccccc12 (stereo not given)
// result 106

// query Output measured growth for this item: Cn1cc(-c2csc(-c3cn(CCCCN4CCCCC4)c4ccccc34)n2)c2cccnc21
// result 88.2

// query Output measured growth for this item: Cc1cc(-c2nc3cc(F)ccc3[se]2)cc(F)c1N
// result 83.8

// query Output measured growth for this item: CC(C)COC(C[N+](=O)[O-])C(Cl)(Cl)Cl (stereo not given)
// result 106

// query Output measured growth for this item: O=C1C=C(N2C3C4CCC(C4)C32)C(=O)C=C1c1ccccc1 (stereo not given)
// result 107

// query Output measured growth for this item: CC1(C)N=C(N)N=C(N)N1c1cccc(CCCCc2ccc(Cl)c(S(=O)(=O)F)c2)c1
// result 54.9

// query Output measured growth for this item: COC[C@@H]1C[C@@]2(C)[C@@H](CC[C@@H]3[C@@H]2CC[C@@]2(C)[C@H]3CC[C@]2(C)O)CC1=O
// result 105

// query Output measured growth for this item: COC1OC(CO)C(O)C(O)[CH]1[Hg][O]C(C)=O (stereo not given)
// result 91.7

// query Output measured growth for this item: CC[C@H](C)[C@H](NC(=O)c1ccccn1)C(=O)N(C)[C@H](C[C@@H](OC(C)=O)c1nc(C(=O)N[C@@H](Cc2ccccc2)C[C@H](C)C(=O)OC)cs1)C(C)C
// result 58.2

// query Output measured growth for this item: Clc1ccc2nnnn2n1
// result 85.2

// query Output measured growth for this item: CNC(=O)Oc1ccc(C(C)(C)C)cc1OC(=O)NC
// result 112

// query Output measured growth for this item: OCc1ccc2c(c1)OCO2
// result 104

// query Output measured growth for this item: COc1ccc2c(c1)c(-c1nc(-c3cn(C)c4ncccc34)cs1)cn2CCN1CCOCC1
// result 62.3

// query Output measured growth for this item: CC[C@H](C)[C@@H]1OC(=O)C(C)(C)[C@H](O)[C@H](Cc2ccccc2)OC(=O)[C@H](C(C)C)OC(=O)[C@@H](NC(=O)c2cccc(NC=O)c2O)[C@@H](C)OC1=O
// result 78.9

// query Output measured growth for this item: CSc1nc(Cl)cc(N2CC2)n1
// result 128

// query Output measured growth for this item: CC1=C(CN)C2=C(C)C3(CC3)[C@@](C)(O)C(=O)C2=C1
// result 91.6

// query Output measured growth for this item: CC1CCCC(C[N+](C)(C)C)C1=O (stereo not given)
// result 77.2

// query Output measured growth for this item: [Cl][Hg][n]1c(-c2ccco2)nc2ccccc21
// result 98.8

// query Output measured growth for this item: C/C(=C\c1ccn(-c2ccc(N)c(F)c2)n1)[C@@H]1C[C@@H]2O[C@]2(C)CCC[C@H](C)[C@H](O)[C@@H](C)C(=O)C(C)(C)[C@@H](O)CC(=O)O1
// result 25.7

// query Output measured growth for this item: COc1ccc(/C=C\c2cc(OC)c(OC)c(OC)c2)cc1NS(=O)(=O)c1ccc(Cl)cc1
// result 73.1

// query Output measured growth for this item: Nc1ccc(-c2nc3cc(F)ccc3[se]2)cc1F
// result 72.6

// query Output measured growth for this item: CCCCC1(CCC)C(=O)NC(=S)NC1=O
// result 112

// query Output measured growth for this item: CC(=O)[C@H]1CC[C@H]2[C@@H]3CC[C@H]4C[C@H](N)CC[C@]4(C)[C@H]3CC[C@]12C
// result 107

// query Output measured growth for this item: Cc1ccc(Nc2nc3c(s2)C2=CC[C@@H]4[C@H](CC[C@]5(C)C(=O)CC[C@@H]45)[C@@]2(C)CC3)cc1
// result 61.8

These measurements were taken from PubChem BioAssay (NCI).
